Biological target: human PCSK9 (Homo sapiens, UniProt Q8NBP7)
Sequence (Q8NBP7 153-692): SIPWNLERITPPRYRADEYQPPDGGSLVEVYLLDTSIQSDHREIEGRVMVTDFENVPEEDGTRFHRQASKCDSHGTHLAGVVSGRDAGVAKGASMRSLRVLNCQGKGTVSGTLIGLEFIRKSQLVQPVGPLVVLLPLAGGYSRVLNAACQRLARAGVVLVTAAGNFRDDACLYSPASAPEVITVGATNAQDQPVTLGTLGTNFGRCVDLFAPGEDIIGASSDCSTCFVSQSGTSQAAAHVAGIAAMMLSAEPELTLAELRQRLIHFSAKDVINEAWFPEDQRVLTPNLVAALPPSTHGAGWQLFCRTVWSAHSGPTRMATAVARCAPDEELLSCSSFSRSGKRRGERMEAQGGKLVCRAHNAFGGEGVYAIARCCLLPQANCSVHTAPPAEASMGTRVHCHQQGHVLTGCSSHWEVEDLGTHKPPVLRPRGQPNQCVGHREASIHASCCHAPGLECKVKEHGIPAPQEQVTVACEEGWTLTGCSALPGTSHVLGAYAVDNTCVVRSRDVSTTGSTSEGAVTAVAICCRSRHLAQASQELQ
Sequence (Q8NBP7 31-152 partner limits assumed): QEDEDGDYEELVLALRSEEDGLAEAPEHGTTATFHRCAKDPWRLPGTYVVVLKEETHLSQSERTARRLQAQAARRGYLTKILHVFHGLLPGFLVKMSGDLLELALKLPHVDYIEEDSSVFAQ
Experiment: PCSK9 ligand binding TR-FRET assay (interference with binding of human PCSK9 to human LDLR)
Conditions: TR-FRET; human PCSK9 Alexa Fluor 647 / human LDLR extracellular domain-Europium Kryptate; read-out: PCSK9 FRET Assay IC50
measured attribute: log10 IC50 (log10 of the value in nM)
Scale type: logarithmic (base 10). Underlying IC50 unit: nM.

// below: answered compounds
1) COC[C@@H]1NC(=O)[C@H](C)N(Cc2ccc(Cl)cc2Oc2ccc(-c3cnc(CN(C)C)n3C)cc2)C(=O)C[C@@H](C)C(=O)N(C)[C@@H](CC(C)C)CNC(=O)C[C@H](Cc2ccc(Cl)cc2)N(C)C1=O
1.29
2) COC[C@@H]1NC(=O)[C@H](CCN2CCOCC2)N(Cc2ccc(Cl)cc2Oc2ccc(-c3cnc(CN(C)C)n3C)cc2)C(=O)C[C@@H](Cc2ccccc2)C(=O)N(C)[C@H]2CCCC[C@@H]2NC(=O)C[C@H](Cc2ccc(Cl)cc2)N(C)C1=O
0.04
3) COC[C@@H]1NC(=O)[C@H](C)N(Cc2ccc(Cl)cc2Oc2ccc(-c3cnc([C@H](C)N(C)C)n3C)cc2)C(=O)C[C@@H](Cc2ccccc2)C(=O)N(C)[C@H]2CCCC[C@@H]2NC(=O)C[C@H](Cc2ccc(Cl)cc2)N(C)C1=O
2.39
4) COC[C@@H]1NC(=O)C(C)N(Cc2ccc(Cl)cc2Oc2ccc(-c3cnc(CN(C)C)n3C)cc2)C(=O)C[C@@H](Cc2ccccc2)C(=O)N(C)[C@H]2CCCC[C@@H]2NC(=O)C[C@H](Cc2ccc(Cl)cc2)N(C)C1=O (single isomer, unassigned)
0.97
5) COC[C@@H]1NC(=O)[C@H](C)N(Cc2ccc(Cl)cc2Oc2ccc(-c3cnc(CN(C)C)n3C)cc2)C(=O)CN2C[C@H](CNC(=O)C[C@H](Cc3ccc(Cl)cc3)N(C)C1=O)N(C)C2=O
0.94

INPUT: Tell me the measured log10 IC50 of `CCNC(=O)c1ncn(-c2ccc(Oc3cc(Cl)ccc3CN3C(=O)C[C@@H](Cc4ccccc4)C(=O)N(C)[C@@H](C)CNC(=O)C[C@H](Cc4ccc(Cl)cc4)N(C)C(=O)[C@H](COC)NC(=O)[C@@H]3C)cc2)c1C` , please.
OUTPUT: 1.36

INPUT: Tell me the measured log10 IC50 of `COC[C@@H]1NC(=O)[C@H](CC(=O)N(C)C)N(Cc2ccc(Cl)cc2Oc2ccc(-c3cnc(CN(C)C)n3C)cc2)C(=O)C[C@@H](Cc2ccccc2)C(=O)N(C)[C@H]2CCCC[C@@H]2NC(=O)C[C@H](Cc2ccc(Cl)cc2)N(C)C1=O` , please.
OUTPUT: 0.11

INPUT: Tell me the measured log10 IC50 of `COC[C@@H]1NC(=O)[C@H](CCS(C)(=O)=O)N(Cc2ccc(Cl)cc2Oc2ccc(-c3cnc(CN(C)C)n3C)cc2)C(=O)C[C@@H](Cc2ccccc2)C(=O)N(C)[C@@H](C)CNC(=O)C[C@H](Cc2ccc(Cl)cc2)N(C)C1=O` , please.
OUTPUT: 0.59

###

Molecular target: human PCSK9 (Homo sapiens, UniProt Q8NBP7)
Assay: PCSK9 ligand binding TR-FRET assay (interference with binding of human PCSK9 to human LDLR)
Conditions: PCSK9 FRET assay, efficacy (Amax); 100% = 1 uM unlabeled human PCSK9, 0% = DMSO
Recorded Max % inhibition values for a group of compounds are listed next.
# number only, unit % dropped from output

1. COC[C@@H]1NC(=O)[C@H](CC(=O)N2CC(C)(O)C2)N(Cc2ccc(Cl)cc2Oc2ccc(-c3cnc(CN(C)C)n3C)cc2)C(=O)C[C@@H](Cc2ccccc2)C(=O)N(C)C2CCCCC2NC(=O)C[C@H](Cc2ccc(Cl)cc2)N(C)C1=O (stereo in doubt) [Compound 52]
104.32

INPUT: Tell me the measured Max % inhibition of COC[C@@H]1NC(=O)[C@H](C)N(Cc2ccc(Cl)cc2Oc2ccc(-c3cnc(CN4CCCC4)n3C)cc2)C(=O)C[C@@H](Cc2ccccc2)C(=O)N(C)[C@@H](CCN(C)C)CNC(=O)C[C@H](Cc2ccc(Cl)cc2)N(C)C1=O [Compound 190] , please.
OUTPUT: 100.60

INPUT: Tell me the measured Max % inhibition of COC[C@@H]1NC(=O)[C@H](CCC(=O)OC(C)(C)C)N(Cc2ccc(Cl)cc2Oc2ccc(-c3cnc(CN(C)C)n3C)cc2)C(=O)C[C@@H](Cc2ccccc2)C(=O)N(C)[C@H]2CCCC[C@@H]2NC(=O)C[C@H](Cc2ccc(Cl)cc2)N(C)C1=O [Compound 46] , please.
OUTPUT: 96.56

INPUT: Tell me the measured Max % inhibition of COC[C@@H]1NC(=O)[C@H](CCCNC(=O)OC(C)(C)C)N(Cc2ccc(Cl)cc2Oc2ccc(-c3cnc(CN(C)C)n3C)cc2)C(=O)C[C@@H](Cc2ccccc2)C(=O)N(C)[C@@H](C)CNC(=O)C[C@H](Cc2ccc(Cl)cc2)N(C)C1=O [Compound 4] , please.
OUTPUT: 97.50
